Value type: CH4 permeability (Barrer)

*c1ccc(Oc2cccc(-n3c(=O)c4cc5c(=O)n(*)c(=O)c5cc4c3=O)c2)cc1 (repeat unit): 0.0258
*c1ccc(S(=O)(=O)c2ccc(N3C(=O)c4ccc(-c5ccc6c(c5)C(=O)N(*)C6=O)cc4C3=O)cc2)cc1 (repeat unit): 0.0625
*c1ccc(Cc2ccc(N3C(=O)c4cc(Oc5ccccc5)c(-c5cc6c(cc5Oc5ccccc5)C(=O)N(*)C6=O)cc4C3=O)cc2)cc1 (repeat unit): 0.85
*C1C(*)C2CC1C1CC([Si](C)(C)C)C21 (repeat unit): 1010
*c1cccc(Oc2ccc(C(c3ccc(Oc4cccc(N5C(=O)c6ccc(C(c7ccc8c(c7)C(=O)N(*)C8=O)(C(F)(F)F)C(F)(F)F)cc6C5=O)c4)cc3)(C(F)(F)F)C(F)(F)F)cc2)c1 (repeat unit): 0.136

a. *Oc1cc(C)c(C2(c3cc(C)c(Oc4ccc(S(=O)(=O)c5ccc(*)cc5)cc4)cc3C)OC(=O)c3ccccc32)cc1C (repeat unit)
b. *c1cc(C(c2ccc(O)c(N3C(=O)c4cc5c(cc4C3=O)C3(C)c4ccccc4C5(C)c4cc5c(cc43)C(=O)N(*)C5=O)c2)(C(F)(F)F)C(F)(F)F)ccc1O (repeat unit)
Name the one with the greater CH4 permeability value, either a or b as given. Please identify the chosen entry by its label.
b
(b: 0.565 Barrer, a: 0.225 Barrer)
